measurement protocol: small-molecule binders of probe aNOTCH2, primary screen, biochemical, small-molecule microarray, 635/667 nm fluorescence (AID 1121);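 also: score merges feature fluorescence read at 667 nm with its signal to noise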
settings: higher = more signal
Task for the reader: assign each of the following compounds its reported composite z-score.
Could you respond with only the numeric value?

Record summary for [N-]=[N+]=NCc1ccccc1C[C@]1(C(=O)NCc2ccccc2)N=C(c2ccc(OCCCO)cc2)O[C@H]1c1ccccc1 : reported composite z-score = 0.139

Record summary for COc1ccc([Si](C)(C)[C@H]2[C@H](CC(=O)N(CCO)Cc3ccccc3)O[C@@]3(C(=O)N(Cc4ccc(N5CCOC5=O)cc4)c4ccccc43)[C@@H]2C)cc1 : reported composite z-score = -0.168

Record summary for C=C(COC)/C(=C/C[C@H](OC(C)=O)c1ccc(CO)o1)c1cnc2ccccc2c1 : reported composite z-score = -0.11

Record summary for COc1ccc([Si](C)(C)[C@H]2[C@H](CC(=O)N(CCO)Cc3ccccc3)O[C@@]3(C(=O)N(Cc4cccc(N5C(=O)COc6ccccc65)c4)c4ccccc43)[C@@H]2C)cc1 : reported composite z-score = -0.118

Record summary for COCCOC(=O)N1C(=O)[C@@]2(c3cc(C#CC4(O)CCCCCC4)ccc31)[C@H](c1ccc(O)cc1)N1[C@H](c3ccccc3)[C@H](c3ccccc3)OC(=O)[C@H]1[C@@H]2C(N)=O : reported composite z-score = -0.044

Record summary for O=C(NC1CC1)[C@@H]1c2ccccc2C(=O)N(Cc2ccccc2C(F)(F)F)[C@H]1c1ccc(CO)cc1 : reported composite z-score = -0.0173

Record summary for CCCNC(=O)[C@@H]1c2ccccc2C(=O)N(Cc2cc(C(F)(F)F)cc(C(F)(F)F)c2)[C@H]1c1ccc(CO)cc1 : reported composite z-score = -0.194

====

measurement protocol: splicing luciferase reporter signal modulators, primary screen, spliceosome inhibition project, cell-based, HEK293, splice +/- reporter (AID 1101);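 also: HEK293 cells carrying a splicing-competent luciferase reporter gene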
settings: luminescence, 24 h, higher = more signal, called active from +8 up or from −8 down
Output: class label from z-score. Mapping: bottom end (below -0.7), midrange (-0.7 to below -0.0008), top end (-0.0008 or more)

q: State the class of the compound shown: CO[C@H]1O[C@H](CO)[C@@H](OC(=O)Nc2ccccc2)[C@H](OC(=O)Nc2ccccc2-c2ccccc2)[C@H]1OC(=O)Nc1ccccc1-c1ccccc1
a: bottom end

q: State the class of the compound shown: CCN(CC)c1ccc(N2CC=CC34O[C@@H]5C=CCOC(=O)[C@@H]5[C@H]3C(=O)N(C(CO)C(C)C)[C@@H]4C2=O)cc1 (some centres undefined)
a: midrange

q: State the class of the compound shown: O=C1O[C@H](c2ccccc2)[C@H](c2ccccc2)N2[C@H]1[C@@H](C(=O)NC[C@H](O)c1ccccc1)[C@]1(C(=O)Nc3ccc(C#CC4(O)CCCCCC4)cc31)[C@H]2c1ccc(O)cc1
a: top end

q: State the class of the compound shown: CC(C)(C)OC(=O)CC[C@@]1(C(=O)NCc2ccccc2)N=C(c2ccc(OCCCO)cc2)O[C@@H]1c1ccccc1CN=[N+]=[N-]
a: top end

q: State the class of the compound shown: CC(C)CCC[C@@H](C)[C@H]1CC[C@@]2(C)C3=C(CC[C@]12C)[C@@]1(C)CC[C@H](OC(=O)CCl)C(C)(C)C1CC3 (some centres undefined)
a: top end

q: State the class of the compound shown: C=CCNC(=O)[C@@H]1[C@H]2C(=O)O[C@H](c3ccccc3)[C@H](c3ccccc3)N2[C@H](c2ccc(O)cc2)[C@@]12C(=O)Nc1ccccc12
a: top end

q: State the class of the compound shown: C=C1C=C(Br)C2(OCCCO2)[C@H]2OC12 (some centres undefined)
a: midrange

q: State the class of the compound shown: CC(C)(C)OC(=O)CC[C@@]12N=C(c3ccc(OCCCO)cc3)O[C@@H]1c1ccccc1N(Cc1ccccc1)C2=O
a: midrange

q: State the class of the compound shown: C=CCN1C(=O)[C@@]2(O[C@@H](CCn3cc(CCO)nn3)[C@H]([Si](C)(C)c3ccc(OC)cc3)[C@H]2C)c2cc(N3C(=O)c4cccc5cccc3c45)ccc21
a: bottom end

q: State the class of the compound shown: CC(C)NC(=O)[C@@H]1c2ccccc2C(=O)N(Cc2cc(F)cc(C(F)(F)F)c2)[C@H]1c1ccc(CO)cc1
a: bottom end

q: State the class of the compound shown: CC(C)[C@@H](C(=O)O)n1cc(-c2ccccn2)nn1
a: midrange

q: State the class of the compound shown: COc1ccc([Si](C)(C)[C@H]2[C@H](CC(=O)N(CCO)Cc3ccccc3)O[C@@]3(C(=O)N(Cc4ccc(N5CCC5=O)cc4)c4ccccc43)[C@@H]2C)cc1
a: midrange

q: State the class of the compound shown: NC(=O)N1C(=O)C2C(C1=O)C1C=C(c3ccc(CO)cc3)C2C(C2CC2)N1Cc1cc2c(cc1Br)OCO2 (centres undefined)
a: bottom end

====

System: XIP peptide (Xip251-270) binding
measurement protocol: small-molecule binders of XIP peptide, primary screen, biochemical, small-molecule microarray, fluorescence 635/667 nm, 0.1 µg/mL protein (AID 1182)
settings: fluorescent protein binding, 635 nm, higher = more signal, called active from +8 up or from −8 down
Task for the reader: assign each of the following compounds its reported composite z-score.
Could you respond with only the numeric value?

Record summary for COc1ccc([Si](C)(C)[C@@H]2[C@@H](CC(=O)N3CCC[C@H]3CO)O[C@]3(C(=O)N(Cc4ccc(N5CCC5=O)cc4)c4ccccc43)[C@H]2C)cc1 : reported composite z-score = 1.15

Record summary for O=C1O[C@@H](c2ccccc2)[C@@H](c2ccccc2)N2[C@@H](c3ccc(OCCO)cc3)[C@]3(C(=O)Nc4ccc(C#CC5(O)CCCCCC5)cc43)[C@@H](C(=O)NC[C@H](O)c3ccccc3)[C@H]12 : reported composite z-score = 0.673

Record summary for CC(=O)OC(C/C=C\B1OC(C)(C)C(C)(C)O1)c1ccccc1 (centres undefined) : reported composite z-score = -0.65

Record summary for O=c1n(-c2ccccc2)c(=O)n2n1CC(COc1ccccc1)=C1[C@@H](CCc3ccccc3)OB(O)C[C@@H]12 : reported composite z-score = 1.45

Record summary for COc1ccc([Si](C)(C)[C@H]2[C@H](CCO)O[C@@]3(C(=O)N(Cc4ccc(N5C(=O)c6cccc7cccc5c67)cc4)c4ccccc43)[C@@H]2C)cc1 : reported composite z-score = 0.529

Record summary for COc1ccc(C(=O)Nc2cccc(CN3C(=O)[C@@]4(O[C@@H](CCO)[C@H]([Si](C)(C)c5ccc(OC)cc5)[C@H]4C)c4ccccc43)c2)cc1 : reported composite z-score = 0.11

Record summary for COCCCNC(=O)[C@@]1(Cc2ccccc2)N=C(c2ccc(OCCCO)cc2)O[C@H]1c1ccccc1N=[N+]=[N-] : reported composite z-score = 0.619

Record summary for C=CCNC(=O)[C@@H]1[C@H]2C(=O)O[C@H](c3ccccc3)[C@H](c3ccccc3)N2[C@H](c2ccc(O)cc2)[C@@]12C(=O)Nc1ccc(C#Cc3ccc(OC)cc3)cc12 : reported composite z-score = 0.507

Record summary for CO[C@H]1O[C@H](CO)[C@@H](OC(=O)Nc2ccccc2)[C@H](OC(=O)Nc2ccc3c(c2)OCO3)[C@H]1OC(=O)Nc1ccc2c(c1)OCO2 : reported composite z-score = 1.04

Record summary for CN1C=C(C(=O)OCCS(C)(=O)=O)C(C(=O)OCCS(C)(=O)=O)=CC(CCCO)=CC1c1cccs1 (centres undefined) : reported composite z-score = -0.64

Record summary for [N-]=[N+]=NCc1ccccc1C[C@@]1(C(=O)O)N=C(c2ccc(OCCCO)cc2)O[C@@H]1c1ccccc1 : reported composite z-score = 1.35

Record summary for COCCCNC(=O)[C@@]1(C)c2ccccc2C(=O)N(Cc2cc(F)cc(C(F)(F)F)c2)[C@H]1c1ccc(CO)cc1 : reported composite z-score = -0.268

Record summary for O=C(NCC(F)(F)F)[C@@H]1c2ccccc2C(=O)N(C2Cc3ccccc3C2)[C@H]1c1ccc(CO)cc1 : reported composite z-score = -0.729

Record summary for C#CCOc1ccc(C[C@H]2C(=O)O[C@H](Cc3ccccc3)[C@H](/C=C/C3CC3)N2CC#C)cc1 : reported composite z-score = 0.294

====

measurement protocol: binders of probe aFGF2 on microarray, primary screen, stem cell growth factor project, biochemical, small-molecule microarray, fluorescence 635/667 (AID 1067);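 also: measures binding of biotinylated aFGF2 protein to printed compounds on slides; z-score merges feature fluorescence and signal-to-noise across triplicate slides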
settings: higher = more signal
test readout: composite z-score

Record summary for C=CC[C@@]1(C(=O)NCc2ccccc2)N=C(c2ccc(OCCCO)cc2)O[C@@H]1c1ccccc1 : reported composite z-score = -0.0778

Record summary for C=C(COC)C(=O)CC[C@@H](OC(=O)c1ccccc1-c1ccccc1C(=O)O)c1cccc(OCCO)c1 : reported composite z-score = -0.14

Record summary for O=C(O)[C@H]1C[C@H]2C(=O)N[C@@H](Cc3ccccc3)C(=O)N2[C@H]1c1ccc(O)cc1 : reported composite z-score = -0.0943

Record summary for COc1ccc(C#Cc2ccc3c(c2)[C@]2(C(=O)N3)[C@H](c3ccc(O)cc3)N3[C@H](c4ccccc4)[C@H](c4ccccc4)OC(=O)[C@H]3[C@@H]2C(=O)N2CCN(c3ncccn3)CC2)cc1 : reported composite z-score = -0.0625

Record summary for C=CCN1C(=O)[C@]2(O[C@H](CCn3cc([C@H](O)c4ccccc4)nn3)[C@@H]([Si](C)(C)c3ccc(OC)cc3)[C@@H]2C)c2cc(N3CCOC3=O)ccc21 : reported composite z-score = -0.154

Record summary for C=C(COC)/C(=C/C[C@H](OC(C)=O)c1ccc(CO)o1)c1cnc2ccccc2c1 : reported composite z-score = -0.0316

Record summary for C=CC[C@@H](OC(=O)Nc1ccc(SC)cc1)c1ccc(OCCO)cc1 : reported composite z-score = -0.175
